// data source = patent US20260053834A1

Test system: LAPC4 prostate cancer cells, which express the AKT1 E17K allele
Test: Antiproliferative effects in LAPC4 cells (CellTiter Glo, 72 h)
Assay type: cell-based
Conditions: Homo sapiens, LAPC4, 72 h, read-out: LAPC4 proliferation IC50: GeoMean IC50
Procedure: Antiproliferative effects in LAPC4 cells. […] After 72 h, intracellular ATP content was assessed with CellTiter Glo reagent (Promega) according to the manufacturer's instructions. IC50 values were calculated by fitting luminescence values to a log(inhibitor) vs. response Hill equation.
measured property: IC50

A selection of reference data follows.
Nc1ncccc1-c1nc2ccc(-c3ccccc3)nc2n1-c1ccc2c(c1)CC[C@@H]2NC(=O)c1cc(C=O)c(O)c(F)c1F
10 to 100 nM
C#Cc1ccc(C(=O)N[C@H]2CCc3cc(-n4c(-c5cccnc5N)nc5ccc(-n6cccn6)nc54)ccc32)cc1C=O
≥ 2000 nM

Shift focus to the following entry.
# input Name the reported IC50 value associated with the compound COc1cc(-n2cccn2)nc2c1nc(-c1cccnc1N)n2-c1ccc2c(c1)CC[C@@H]2NC(=O)c1cc(C=O)c(O)cc1F
# output 10 to 100 nM

====

Biological target: AKT1 E17K (Homo sapiens, UniProt P31749, E17K)
Sequence (P31749 whole entry E17K): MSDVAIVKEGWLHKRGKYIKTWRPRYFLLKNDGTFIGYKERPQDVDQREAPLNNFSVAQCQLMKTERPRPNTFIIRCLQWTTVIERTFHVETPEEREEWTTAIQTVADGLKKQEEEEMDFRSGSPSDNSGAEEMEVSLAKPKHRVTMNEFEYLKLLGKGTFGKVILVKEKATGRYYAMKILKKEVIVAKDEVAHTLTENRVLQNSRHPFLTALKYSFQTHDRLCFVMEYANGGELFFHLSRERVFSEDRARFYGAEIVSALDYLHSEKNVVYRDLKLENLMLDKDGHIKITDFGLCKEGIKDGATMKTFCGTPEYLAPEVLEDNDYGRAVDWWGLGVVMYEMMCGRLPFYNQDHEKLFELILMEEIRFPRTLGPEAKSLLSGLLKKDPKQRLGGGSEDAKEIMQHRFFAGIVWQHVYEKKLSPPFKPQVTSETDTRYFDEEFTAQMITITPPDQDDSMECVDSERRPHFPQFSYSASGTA
Assay: Live cell target engagement by NanoBRET competitive probe displacement, AKT1 E17K
Details: transfected HEK293 cells, 2 h at 37° C., read-out: AKT1 E17K IC50: GeoMean IC50
pIC50: −log10 of the molar value.
measured property: pIC50

A selection of reference data follows.
CC(=O)c1cc(C(=O)N[C@H]2CCc3cc(-n4c(-c5cccnc5N)nc5ccc(-n6cccn6)nc54)ccc32)cc(C=O)c1O
7.00 to 8.00
Nc1ncccc1-c1nc2ccc(-c3cnccn3)nc2n1-c1ccc2c(c1)CC[C@@H]2NC(=O)c1cc(C=O)c2[nH]ncc2c1
> 8.00

Shift focus to the following entry.
# input Name the reported pIC50 value associated with the compound Nc1ncccc1-c1nc2ccc(-n3cccn3)nc2n1-c1ccc2c(c1)CC[C@@H]2Nc1n[nH]c2c(C=O)cccc12
# output 7.00 to 8.00

====

Target: AKT1 WT (Homo sapiens)
Sequence (P31749 whole entry): as the sequence (P31749 whole entry E17K) above, with K17E counted along it
Test: Live cell target engagement by NanoBRET competitive probe displacement, AKT1 WT
Conditions: transfected HEK293 cells, 2 h at 37° C., read-out: AKT1 WT IC50: GeoMean IC50
pIC50: −log10 of the molar value.
measured property: pIC50

A selection of reference data follows.
COc1cc2nc(-c3cccnc3N)n(-c3ccc4c(c3)CC[C@@H]4NC(=O)c3ccc(O)c(C=O)c3)c2nc1-n1cccn1 [Example 215]
5.70 to 7.00
CN(C)C(=O)Nc1ccc(C(=O)N[C@H]2CCc3cc(-n4c(-c5cccnc5N)nc5ccc(-n6cccn6)nc54)ccc32)cc1C=O [Example 104]
7.00 to 8.00
Nc1ncccc1-c1nc2ccc(-c3ncc(F)s3)nc2n1-c1ccc2c(c1)CC[C@@H]2NC(=O)c1cc(C=O)c(O)c(F)c1F [Example 193]
7.00 to 8.00
COc1cc(-n2cccn2)nc2c1nc(-c1cccnc1N)n2-c1ccc2c(c1)CC[C@@H]2NC(=O)c1cc(C=O)c(O)cc1F [Example 221]
7.00 to 8.00
Cc1cc(-n2cccn2)nc2c1nc(-c1cccnc1N)n2-c1ccc2c(c1)CC[C@@H]2NC(=O)c1cc(C=O)c(O)c(F)c1F [Example 153]
7.00 to 8.00

# input Name the reported pIC50 value associated with the compound Nc1ncccc1-c1nc2ccc(-n3ccc(-n4cccn4)n3)nc2n1-c1ccc2c(c1)CC[C@@H]2NC(=O)c1ccc(O)c(C=O)c1 [Example 117]
# output 7.00 to 8.00
